Data provenance is PubChem BioAssay (NCATS).

Each entry below lists one item and its recorded activity, negative = cell killing value.
# assayRemarks: Drug repurposing screens with cells derived from glioblastoma tumor samples (AID 1345199); also: % is scaled to controls: 0 for no effect and ±100 for the full control effect
# testSettings: GBM patient neurospheres viability, ATP luminescence, 48 h; at 45.9 µM (top of the series); tumour line B
Inconclusive results are not listed.
API: value field is a number in %; no unit string.

Below are worked cases with known answers.
molecule	activity, negative = cell killing (%)
O=C(O)c1cc(O)c2c(c1)[O][Bi][O]2	-11.9
C[C@H]1C[C@H]2[C@@H]3CCC4=CC(=O)C=C[C@]4(C)[C@@]3(F)[C@@H](O)C[C@]2(C)[C@@]1(O)C(=O)CO	-16
C/C1=C2N=C(/C=C3N=C(/C(C)=C4\[N-][C@@](C)([C@@H]5N=C1[C@](C)(CCC(=O)NCC(C)OP(=O)(O)O[C@H]1[C@@H](O)[C@@H](n6cnc7cc(C)c(C)cc76)O[C@@H]1CO)[C@H]5CC(N)=O)[C@@](C)(CC(N)=O)[C@@H]4CCC(N)=O)[C@@](C)(CC(N)=O)[C@@H]\3CCC(N)=O)C(C)(C)[C@@H]/2CCC(N)=O.CC(=O)O.[Co] (some centres undefined)	-15.2

Next:
What activity, negative = cell killing value was documented for this molecule, O=C(O)C1CCCN1 (centres undefined) ?
-8.24
